compounds and their reported IC50
assaySystem: CDK4 (Homo sapiens, UniProt P11802)
Construct: purchased Carna Company
Sequence (P11802 whole entry): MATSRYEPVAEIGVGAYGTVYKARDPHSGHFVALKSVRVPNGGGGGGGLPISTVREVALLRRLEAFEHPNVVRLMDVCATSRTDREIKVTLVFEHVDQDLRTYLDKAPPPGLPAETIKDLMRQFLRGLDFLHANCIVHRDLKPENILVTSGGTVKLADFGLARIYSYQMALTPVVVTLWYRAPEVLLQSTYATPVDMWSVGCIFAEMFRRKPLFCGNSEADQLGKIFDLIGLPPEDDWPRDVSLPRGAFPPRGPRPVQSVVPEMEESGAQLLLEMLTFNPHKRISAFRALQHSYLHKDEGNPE
Sequence (P30281 whole entry partner): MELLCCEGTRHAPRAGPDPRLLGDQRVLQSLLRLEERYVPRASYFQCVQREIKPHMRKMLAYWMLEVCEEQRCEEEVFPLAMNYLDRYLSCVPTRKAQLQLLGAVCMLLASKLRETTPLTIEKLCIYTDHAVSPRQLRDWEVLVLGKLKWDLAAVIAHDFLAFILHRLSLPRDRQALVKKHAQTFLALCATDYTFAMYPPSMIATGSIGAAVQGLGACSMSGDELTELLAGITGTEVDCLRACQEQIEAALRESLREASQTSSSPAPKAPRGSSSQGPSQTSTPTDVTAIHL
testMethodNotes: CDK enzymology experiment in vitro, capillary mobility shift assay (MSA)
Type: biochemical
assaySetup: read-out: CDK4 (nM) inhibitory IC50
reportedEndpoint: IC50

O=S(=O)(c1ccc(N2CCNCC2)cn1)N1CCC(Nc2ncc(C(F)(F)F)c(O[C@H]3CCOC3)n2)CC1 :: 0.5 to 2.5 nM
N#Cc1cnc(NC2CCN(S(=O)(=O)c3ccc(C4CCNCC4)cc3)CC2)nc1NC1CCCC1 :: 0.5 to 2.5 nM
O=S(=O)(c1ccc(C2CNC2)c(F)c1)N1CCC(Nc2ncc(C(F)(F)F)c(O[C@H]3CCOC3)n2)CC1 :: 2.5 to 10 nM
Cn1cc(S(=O)(=O)N2CCC(Nc3ncc(C#N)c(N[C@@H]4CCC[C@@]4(C)O)n3)CC2)cn1 (racemic) [Example 19] :: 10 to 50 nM
O=S(=O)([C@H]1CCCNC1)N1CCC(Nc2ncc(C(F)(F)F)c(NC3CCCC3)n2)CC1 :: 2.5 to 10 nM
Cn1cc(S(=O)(=O)N2CCC(Nc3ncc(C#N)c(O[C@H]4CCOC4)n3)CC2)cn1 :: 10 to 50 nM
Cn1cc(S(=O)(=O)N2CC[C@@H](Nc3ncc(C(F)(F)F)c(O[C@H]4CCOC4)n3)[C@H](F)C2)cn1 :: 10 to 50 nM

* * *

assaySystem: CDK2 (Homo sapiens)
Construct: purchased Carna Company
testMethodNotes: CDK enzymology experiment in vitro, capillary mobility shift assay (MSA)
Format: biochemical
assaySetup: read-out: CDK2 (nM) inhibitory IC50
reportedEndpoint: IC50

O=S(=O)(c1ccc(N2CC[C@H](O)C2)cc1)N1CCC(Nc2ncc(C(F)(F)F)c(O[C@H]3CCOC3)n2)CC1 :: < 0.5 nM
CC1(O)CCN(c2ccc(S(=O)(=O)N3CCC(Nc4ncc(C(F)(F)F)c(O[C@H]5CCOC5)n4)CC3)cc2)CC1 :: < 0.5 nM
CC(C)n1cc(S(=O)(=O)N2CCC(Nc3ncc(C(F)(F)F)c(O[C@H]4CCOC4)n3)CC2)cn1 :: 0.5 to 2.5 nM
Cn1cc(S(=O)(=O)N2CCC(Nc3ncc(C#N)c(NC4CCOCC4)n3)CC2)cn1 :: 10 to 50 nM
C[C@@H](CO)Nc1nc(NC2CCN(S(=O)(=O)c3cnn(C)c3)CC2)ncc1C#N :: 10 to 50 nM
O=S(=O)(c1cnn(CCO)c1)N1CCC(Nc2ncc(C(F)(F)F)c(O[C@H]3CCOC3)n2)CC1 :: < 0.5 nM
N#Cc1cnc(NC2CCN(S(=O)(=O)c3ccc(C4=CCNCC4)cc3)CC2)nc1N[C@@H]1CCC[C@H]1O :: 0.5 to 2.5 nM
O=S(=O)(c1ccc([C@H]2CCCNC2)cc1)N1CCC(Nc2ncc(C(F)(F)F)c(O[C@H]3CCOC3)n2)CC1 (single isomer, unassigned) :: < 0.5 nM
O=S(=O)(c1cnn(S(=O)(=O)c2cn[nH]c2)c1)N1CCC(Nc2ncc(C(F)(F)F)c(O[C@H]3CCOC3)n2)CC1 :: < 0.5 nM
N#Cc1cnc(NC2CCN(S(=O)(=O)c3ccc(N4CCNC(=O)C4)cc3)CC2)nc1NC1CCCC1 :: 0.5 to 2.5 nM
O=S(=O)(c1ccc(C2CCCNC2)c(F)c1)N1CCC(Nc2ncc(C(F)(F)F)c(O[C@H]3CCOC3)n2)CC1 (stereo partly shown) :: < 0.5 nM
Cn1cc(S(=O)(=O)N2CCC(Nc3ncc(C#N)c(SC4CCCC4)n3)CC2)cn1 :: 0.5 to 2.5 nM
Cn1cc(S(=O)(=O)N2CCC(Nc3ncc(C#N)c(O[C@H]4CCOC4)n3)CC2)cn1 :: 2.5 to 10 nM

* * *

assaySystem: CDK6 (Homo sapiens)
Construct: purchased Carna Company
Sequence (Q00534 whole entry): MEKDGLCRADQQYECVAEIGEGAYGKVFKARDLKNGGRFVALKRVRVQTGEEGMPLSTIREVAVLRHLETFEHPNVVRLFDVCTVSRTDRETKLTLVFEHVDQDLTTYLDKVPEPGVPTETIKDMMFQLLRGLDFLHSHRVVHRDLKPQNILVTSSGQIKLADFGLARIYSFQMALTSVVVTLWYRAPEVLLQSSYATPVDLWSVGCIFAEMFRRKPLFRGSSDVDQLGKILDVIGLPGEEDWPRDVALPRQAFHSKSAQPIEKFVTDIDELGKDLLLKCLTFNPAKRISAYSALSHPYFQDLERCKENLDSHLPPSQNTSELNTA
Sequence (P30281 whole entry partner): as the sequence (P30281 whole entry partner) above
testMethodNotes: CDK enzymology experiment in vitro, capillary mobility shift assay (MSA)
Assay type: biochemical
assaySetup: read-out: CDK6 (nM) inhibitory IC50
Each record here notes measured IC50.
reportedEndpoint: IC50

C[C@@H]1CN(c2ccc(S(=O)(=O)N3CCC(Nc4ncc(C(F)(F)F)c(O[C@H]5CCOC5)n4)CC3)cn2)C[C@H](C)N1 :: 0.5 to 2.5 nM
C[C@@H]1CN(c2ccc(S(=O)(=O)N3CCC(Nc4ncc(C(F)(F)F)c(O[C@H]5CCOC5)n4)CC3)cc2)C[C@H](C)N1 :: 0.5 to 2.5 nM
CN(C)CCN(c1nc(NC2CCN(S(=O)(=O)c3cnn(C)c3)CC2)ncc1C#N)C1CCCC1 :: 100 to 1000 nM
Cn1cc(S(=O)(=O)N2CCC(Nc3ncc(C#N)c(N[C@@H]4CCC[C@H]4O)n3)CC2)cn1 :: 100 to 1000 nM
C[C@H]1CN(c2ccc(S(=O)(=O)N3CCC(Nc4ncc(C(F)(F)F)c(O[C@H]5CCOC5)n4)CC3)cn2)CCN1 :: 0.5 to 2.5 nM
Cn1cc(-c2ccc(S(=O)(=O)N3CCC(Nc4ncc(C#N)c(N[C@H]5CC[C@@H](O)C5)n4)CC3)cc2)cn1 (single isomer, unassigned) [Compound 86] :: 0.5 to 2.5 nM
CC(C)Nc1nc(NC2CCN(S(C)(=O)=O)CC2)ncc1C#N :: 50 to 100 nM

* * *

assaySystem: CDK4 (Homo sapiens, UniProt P11802)
Construct: purchased Carna Company
testMethodNotes: CDK enzymology experiment in vitro, capillary mobility shift assay (MSA)
Format: biochemical
assaySetup: read-out: CDK4 (nM) inhibitory IC50
reportedEndpoint: IC50

Cc1cc(S(=O)(=O)N2CCC(Nc3ncc(C(F)(F)F)c(O[C@H]4CCOC4)n3)CC2)cnc1N1CCNCC1 :: 0.5 to 2.5 nM
O=S(=O)(c1ccc(C2CCNCC2)nc1)N1CCC(Nc2ncc(C(F)(F)F)c(O[C@H]3CCOC3)n2)CC1 :: 0.5 to 2.5 nM
O=S(=O)(c1ccc(C2CNC2)cc1)N1CCC(Nc2ncc(C(F)(F)F)c(O[C@H]3CCOC3)n2)CC1 :: 0.5 to 2.5 nM
Cn1cc(-c2ccc(S(=O)(=O)N3CCC(Nc4ncc(C#N)c(N[C@@H]5CCOC5)n4)CC3)cc2)cn1 :: 10 to 50 nM
CC1(O)CCN(c2ccc(S(=O)(=O)N3CCC(Nc4ncc(C(F)(F)F)c(O[C@H]5CCOC5)n4)CC3)cc2)CC1 :: 0.5 to 2.5 nM
Cn1cc(S(=O)(=O)N2CCC(Nc3ncc(C#N)c(NC4CCC(F)(F)C4)n3)CC2)cn1 (centres unmarked) :: 10 to 50 nM
C[C@@H](CO)Nc1nc(NC2CCN(S(=O)(=O)c3cnn(C)c3)CC2)ncc1C#N :: 100 to 1000 nM
N#Cc1cnc(NC2CCN(S(=O)(=O)c3ccc(C4CCNCC4)cc3)CC2)nc1NC1CCCC1(F)F (centres unmarked) :: 0.5 to 2.5 nM
CN1CCC(c2ccc(S(=O)(=O)N3CCC(Nc4ncc(C#N)c(NC5CCCC5)n4)CC3)cc2)CC1 :: 0.5 to 2.5 nM
Cn1cc(S(=O)(=O)N2CCC(Nc3ncc(C(F)(F)F)c(O[C@H]4CCOC4)n3)C(F)(F)C2)cn1 (some centres unmarked) :: 10 to 50 nM
O=S(=O)(c1ccc(C2CCNCC2)cc1)N1CCC(Nc2ncc(C(F)(F)F)c(O[C@H]3CCOC3)n2)CC1 :: 0.5 to 2.5 nM
O=S(=O)(c1ccc(N2C3CNCC2C3)nc1)N1CCC(Nc2ncc(C(F)(F)F)c(O[C@H]3CCOC3)n2)CC1 :: 0.5 to 2.5 nM
O=S(=O)(c1ccc(C2CCCNC2)cc1)N1CCC(Nc2ncc(C(F)(F)F)c(O[C@H]3CCOC3)n2)CC1 (some centres unmarked) :: 0.5 to 2.5 nM
O=S(=O)(c1cccc(N2CCNCC2)c1)N1CCC(Nc2ncc(C(F)(F)F)c(O[C@H]3CCOC3)n2)CC1 :: 2.5 to 10 nM

* * *

assaySystem: CDK4 (Homo sapiens)
Construct: purchased Carna Company
testMethodNotes: CDK enzymology experiment in vitro, capillary mobility shift assay (MSA)
Assay type: biochemical
assaySetup: read-out: CDK4 (nM) inhibitory IC50
From the text: CDK1/CDK2/CDK4/CDK6/CDK7/CDK9 were purchased from Carna Company; Carliper substrate CTD3/substrate 18/substrate 8 were purchased from Gil Biochemical Company; Dinaciclib/Palbociclib were purchased from Selleckchem Company; DMSO was purchased from Sigma Company; 384-well plates were purchased from Corning Company. […]
reportedEndpoint: IC50

Cn1cc(-c2ccc(S(=O)(=O)N3CCC(Nc4ncc(C#N)c(N[C@H]5CCOC5)n4)CC3)cc2)cn1 [Example 8] :: 2.5 to 10 nM
Cn1cc(S(=O)(=O)N2CCC(Nc3ncc(C(F)(F)F)c(O[C@@H]4COC[C@@H]4F)n3)CC2)cn1 [Compound 124] :: 100 to 1000 nM
CN1CCC(S(=O)(=O)N2CCC(Nc3ncc(C#N)c(NC4CCCC4)n3)CC2)CC1 [Compound 85] :: 10 to 50 nM
Cn1cc(S(=O)(=O)N2CCC(Nc3ncc(C(F)(F)F)c(O[C@H]4CCOC4)n3)CC2)cn1 [Example 7] :: 10 to 50 nM
Cn1cc(S(=O)(=O)N2CCC(Nc3ncc(C#N)c(NC4CCCC4)n3)CC2)cn1 [Compound 31] :: 2.5 to 10 nM
Cc1cc(S(=O)(=O)N2CCC(Nc3ncc(C(F)(F)F)c(O[C@H]4CCOC4)n3)CC2)ccc1C1=CCCNC1 [Compound 196] :: 0.5 to 2.5 nM
C[C@H]1CN(c2ccc(S(=O)(=O)N3CCC(Nc4ncc(C(F)(F)F)c(O[C@H]5CCOC5)n4)CC3)cn2)C[C@H](C)N1 [Compound 170] :: 0.5 to 2.5 nM
N#CC1CCN(c2ccc(S(=O)(=O)N3CCC(Nc4ncc(C(F)(F)F)c(O[C@H]5CCOC5)n4)CC3)cc2)CC1 [Compound 143] :: 2.5 to 10 nM
Cn1cc(S(=O)(=O)N2CCC(Nc3ncc(C(F)(F)F)c(O[C@@H]4CCOC4)n3)CC2)cn1 [Compound 88] :: 10 to 50 nM
Cc1cc(S(=O)(=O)N2CCC(Nc3ncc(C(F)(F)F)c(O[C@H]4CCOC4)n3)CC2)ccc1C1CCNCC1 [Compound 155] :: 0.5 to 2.5 nM
Cn1cc(S(=O)(=O)N2CCC(Nc3ncc(C#N)c(O[C@H]4CC[C@H](O)C4)n3)CC2)cn1 (relative stereo) [Compound 55] :: 10 to 50 nM
CN1CC=C(c2ccc(S(=O)(=O)N3CCC(Nc4ncc(C(F)(F)F)c(O[C@H]5CCOC5)n4)CC3)cc2)CC1 [Compound 203] :: < 0.5 nM
Cn1cc(S(=O)(=O)N2CC[C@@H](Nc3ncc(C(F)(F)F)c(O[C@H]4CCOC4)n3)[C@@H](F)C2)cn1 [Compound 128] :: 100 to 1000 nM
C[C@H]1CN(c2ccc(S(=O)(=O)N3CCC(Nc4ncc(C(F)(F)F)c(O[C@H]5CCOC5)n4)CC3)cn2)CCN1 [Compound 188] :: 0.5 to 2.5 nM
O=S(=O)(c1ccc(C2=CCNCC2)nc1)N1CCC(Nc2ncc(C(F)(F)F)c(O[C@H]3CCOC3)n2)CC1 [Compound 173] :: 0.5 to 2.5 nM
Cn1cc(S(=O)(=O)N2CCC(Nc3ncc(C(F)F)c(O[C@H]4CCOC4)n3)CC2)cn1 [Compound 126] :: 100 to 1000 nM
COc1cc(S(=O)(=O)N2CCC(Nc3ncc(C(F)(F)F)c(O[C@H]4CCOC4)n3)CC2)ccc1C1=CCNCC1 [Compound 194] :: 0.5 to 2.5 nM
Cn1cc(S(=O)(=O)N2CCC(Nc3ncc(C#N)c(O[C@@H]4CCC[C@@H]4O)n3)CC2)cn1 (relative stereo) [Compound 65] :: 10 to 50 nM
Cn1cc(-c2ccc(S(=O)(=O)N3CCC(Nc4ncc(C#N)c(NC5(C)CCOC5)n4)CC3)cc2)cn1 (stereo not shown) [Compound 150] :: 2.5 to 10 nM
Cn1cc(S(=O)(=O)N2CCC(Nc3ncc(C#N)c(NC4CCC4)n3)CC2)cn1 [Compound 76] :: 10 to 50 nM
O=S(=O)(c1ccc(C2=CCNCC2)cc1)N1CCC(Nc2ncc(C(F)(F)F)c(NC3CCCC3(F)F)n2)CC1 (stereo not shown) [Compound 136] :: 2.5 to 10 nM
Cc1cc(S(=O)(=O)N2CCC(Nc3ncc(C(F)(F)F)c(O[C@H]4CCOC4)n3)CC2)ccc1C1=CCNCC1 [Compound 154] :: 0.5 to 2.5 nM
O=S(=O)(c1cnn(CCO)c1)N1CCC(Nc2ncc(C(F)(F)F)c(O[C@H]3CCOC3)n2)CC1 [Example 27] :: 2.5 to 10 nM
Cn1cc(S(=O)(=O)N2CCC(Nc3ncc(C(F)(F)F)c(OC4CCCC4)n3)CC2)cn1 [Compound 40] :: 2.5 to 10 nM
Cn1cnc(S(=O)(=O)N2CCC(Nc3ncc(C(F)(F)F)c(NC4CCCC4)n3)CC2)c1 [Compound 35] :: 10 to 50 nM
CC(C)(O)Cn1cc(S(=O)(=O)N2CCC(Nc3ncc(C(F)(F)F)c(O[C@H]4CCOC4)n3)CC2)cn1 [Compound 156] :: 2.5 to 10 nM
Cn1cc(S(=O)(=O)N2CCC(Nc3ncc(C#N)c(N[C@@H]4CCOC4)n3)CC2)cn1 [Compound 43] :: 100 to 1000 nM
Cn1cc(S(=O)(=O)N2CCC(Nc3ncc(C#N)c(N[C@H]4CC[C@H](O)C4)n3)CC2)cn1 (single isomer, unassigned) [Compound 52] :: 10 to 50 nM
